Hey, just so you know, these numbers are from ChEMBL document CHEMBL3739314.

Tested on: West Nile virus
Experiment: Inhibition of West Nile virus NS2B-NS3 protease using 2-Abz-Gly-Leu-Lys-Arg-Gly-Gly-[…]-Tyr-NH2 as substrate at 50 uM preincubated with protein for 15 mins followed by substrate addition measured for 15 mins by FRET assay
Listed compounds paired with reported inhibition
Phrase the answer as number then unit, nothing more needed.

Observe how each entry below is paired with its result.
1) N=C(N)NCCC[C@H](NC(=O)c1cccc(F)c1)C(=O)N[C@@H](CCCCN)C(=O)N[C@@H](C(N)=O)c1ccc(OCc2ccccc2)cc1 | 95.5%
2) N=C(N)NCCC[C@H](NC(=O)c1ccc(-c2cccs2)s1)C(=O)N[C@@H](CCCCN)C(=O)N[C@@H](C(N)=O)c1ccc(OCc2ccccc2)cc1 | 100%
3) N=C(N)NCCC[C@H](NC(=O)c1cccs1)C(=O)N[C@@H](CCCCN)C(=O)N[C@@H](C(N)=O)c1ccc(OCc2ccc(Cl)c(Cl)c2)cc1 | 98%
4) N=C(N)NCCC[C@H](NC(=O)c1cccs1)C(=O)N[C@@H](CCCCN)C(=O)N[C@@H](C(N)=O)c1ccc(OCc2ccc(Br)cc2)cc1 | 99.2%
5) N=C(N)NCCC[C@H](NC(=O)c1ccccc1)C(=O)N[C@@H](CCCCN)C(=O)N[C@@H](C(N)=O)c1ccc(O)cc1 | 75.1%
6) COc1cccc(COc2ccc([C@@H](NC(=O)[C@H](CCCCN)NC(=O)[C@H](CCCNC(=N)N)NC(=O)c3ccc(-c4cccs4)s3)C(N)=O)cc2)c1 | 100%

Given "N=C(N)NCCC[C@H](NC(=O)c1ccccc1)C(=O)N[C@@H](CCCCN)C(=O)N[C@@H](C(N)=O)c1ccc(OCc2ccccc2Cl)cc1" , respond with its inhibition.
98.1%

Complete the entry with inhibition for "N=C(N)NCCC[C@H](NC(=O)c1ccccc1F)C(=O)N[C@@H](CCCCN)C(=O)N[C@@H](C(N)=O)c1ccc(OCc2ccccc2)cc1"
100%

Consider the compound "N=C(N)NCCC[C@H](NC(=O)c1ccccc1)C(=O)N[C@@H](CCCCN)C(=O)N[C@@H](C(N)=O)c1ccc(OCc2ccc(F)cc2)cc1" . State its measured inhibition.
100%

Give the reported inhibition for this compound. "N=C(N)NCCC[C@H](NC(=O)c1sccc1Cl)C(=O)N[C@@H](CCCCN)C(=O)N[C@@H](C(N)=O)c1ccc(OCc2ccc(Cl)cc2)cc1"
99.3%

Tell me its inhibition given "N=C(N)NCCC[C@H](NC(=O)c1ccc(Cl)s1)C(=O)N[C@@H](CCCCN)C(=O)N[C@@H](C(N)=O)c1ccc(OCc2ccc(Cl)cc2)cc1" as the entry.
99.6%

====

Assay: Inhibition of Dengue virus serotype-2 NS2B-NS3 protease using 2-Abz-Nle-Lys-Arg-Arg-Ser-(3-NO2)-Tyr-NH2 as substrate preincubated with protein for 15 mins followed by substrate addition measured for 15 mins by FRET assay
Set-up: species or system dengue virus type 2
Catalogue of log10 of IC50 readings, one per entry.
Please keep in mind that the values are log10 of IC50 expressed in nM.

Note down log10 of IC50 recorded for "CC(C)(C)c1ccc(COc2ccc([C@@H](NC(=O)[C@H](CCCCN)NC(=O)[C@H](CCCNC(=N)N)NC(=O)c3sccc3Cl)C(N)=O)cc2)cc1"
2.08
